MEASURED ON: Melanocortin receptor 4 (Homo sapiens)
Sequence (P32245 whole entry): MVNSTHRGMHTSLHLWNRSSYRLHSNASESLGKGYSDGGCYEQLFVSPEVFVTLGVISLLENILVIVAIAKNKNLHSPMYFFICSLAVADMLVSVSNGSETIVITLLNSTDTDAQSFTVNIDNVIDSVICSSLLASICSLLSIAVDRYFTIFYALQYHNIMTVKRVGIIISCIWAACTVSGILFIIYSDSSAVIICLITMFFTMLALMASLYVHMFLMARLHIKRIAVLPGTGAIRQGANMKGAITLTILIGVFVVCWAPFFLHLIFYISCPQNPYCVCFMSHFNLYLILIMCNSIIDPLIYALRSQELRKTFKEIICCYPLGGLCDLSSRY
ASSAY DETAILS: Inhibitory activity against hMC4R transfected in HEK293 cells
ASSAY ENDPOINT: pIC50
Here pIC50 is given on a logarithmic scale as minus log10 of the concentration in mol/L.

What pIC50 value was documented for this compound, CCCC[C@@H]1NC(=O)CC[C@@H](C(N)=O)NC(=O)[C@H](Cc2c[nH]c3ccccc23)NC(=O)[C@H](CCCN=C(N)N)NC(=O)[C@@H](Cc2ccc3ccccc3c2)NC(=O)[C@H](CCC(N)=O)NC1=O ?
7.19

Repeat for the following compound: CCCC[C@@H]1NC(=O)CC[C@@H](C(N)=O)NC(=O)[C@H](Cc2c[nH]c3ccccc23)NC(=O)[C@H](CCCN=C(N)N)NC(=O)[C@@H](Cc2ccccc2)NC(=O)[C@H](Cc2c[nH]cn2)NC1=O
6.77

Now consider CCCC[C@@H]1NC(=O)CC[C@@H](C(N)=O)NC(=O)[C@H](Cc2c[nH]c3ccccc23)NC(=O)[C@H](CCCN=C(N)N)NC(=O)[C@@H](Cc2ccccc2)NC(=O)[C@H](CC(=O)O)NC1=O and answer again.
6.82

---

MEASURED ON: Melanocortin receptor 5 (Homo sapiens)
Sequence (P33032 whole entry): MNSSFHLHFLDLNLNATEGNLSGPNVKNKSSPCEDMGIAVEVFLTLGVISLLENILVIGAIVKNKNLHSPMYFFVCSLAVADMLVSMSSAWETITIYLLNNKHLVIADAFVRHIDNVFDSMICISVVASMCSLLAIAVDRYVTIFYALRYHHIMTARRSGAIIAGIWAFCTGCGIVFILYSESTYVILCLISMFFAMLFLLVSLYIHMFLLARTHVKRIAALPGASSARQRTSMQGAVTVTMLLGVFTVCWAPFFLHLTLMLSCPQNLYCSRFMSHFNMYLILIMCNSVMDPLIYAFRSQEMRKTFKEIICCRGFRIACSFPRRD
ASSAY DETAILS: Activity against hMC5R transfected in HEK293 cells by intracellular cAMP accumulation
pEC50: −log10 of the molar value.
Answer each item with its documented pEC50.

Entry under review: CCCC[C@@H]1NC(=O)CC[C@@H](C(N)=O)NC(=O)[C@H](Cc2c[nH]c3ccccc23)NC(=O)[C@H](CCCN=C(N)N)NC(=O)[C@@H](Cc2ccc3ccccc3c2)NC(=O)[C@H](CCC(N)=O)NC1=O . Reported pEC50?
< 5.00

How about CCCC[C@@H]1NC(=O)CC[C@@H](C(N)=O)NC(=O)[C@H](Cc2c[nH]c3ccccc23)NC(=O)[C@H](CCCN=C(N)N)NC(=O)[C@@H](Cc2ccc3ccccc3c2)NC(=O)[C@H](Cc2cnc[nH]2)NC1=O ?
< 5.00

Continue with CCCC[C@@H]1NC(=O)CC[C@@H](C(N)=O)NC(=O)[C@H](Cc2c[nH]c3ccccc23)NC(=O)[C@H](CCCN=C(N)N)NC(=O)[C@@H](Cc2ccccc2)NC(=O)[C@H](Cc2c[nH]cn2)NC1=O
< 5.00
